# Method: Half life in Sprague-Dawley rat at 1 mg/kg, iv
# Type: ADME, organism-based
# Set-up: dose 1 mg/kg, route intravenous
# Conditions: in vivo
Consider the following compounds; for each one, report its half-life.
Numeric only. Scale: h

get_value(item= `Cc1ccc(CN2CCOCC2)cc1NC(=O)c1ccc(Nc2ncc(C)c(-c3cnn(C)c3)n2)cc1` , readout=half-life) returns 0.8

The value of half-life measured for the compound `Cc1ccc(CN2CCOCC2)cc1NC(=O)c1ccc(Nc2ncc(C)c(-c3ccccc3)n2)cc1` turned out to be 1

The compound listed as `Cc1ccc(CN2CCOCC2)cc1NC(=O)c1ccc(Nc2ncc(C)c(-c3ccc(OC(F)(F)F)cc3)n2)cc1` shows half-life equal to 7.2

Entry under test: `Cc1ccc(CN2CCN(C)CC2)cc1NC(=O)c1ccc(Nc2ncc(C)c(-c3ccncc3)n2)cc1` . Its half-life was 1.1

half-life reading for `Cc1ccc(CN2C[C@@H](C)O[C@@H](C)C2)cc1NC(=O)c1ccc(Nc2ncc(C)c(-c3ccc(OC(F)(F)F)cc3)n2)cc1` : 9.2

half-life recorded for this compound, CS(=O)(=O)c1ccc(C(=O)Nc2ccc(Cl)c(-c3ccccn3)c2)c(Cl)c1 [VISMODEGIB] , is 1.6

---

# Method: Mean residence time (0 to t) in Sprague-Dawley rat at 5 mg/kg, po
# Type: ADME, organism-based
# Parameters: dose 5 mg/kg, route oral
# Conditions: in vivo
Quantity Measured: MRT last (h)
Lab book: enter the figure in h, no units written.

MRT last for `Cc1cnc(Nc2ccc(C(=O)Nc3c(C)cccc3C)cc2)nc1-c1ccc(OC(F)(F)F)cc1` is 5.1

Entry `Cc1ccc(CN2C[C@@H](C)O[C@@H](C)C2)cc1NC(=O)c1ccc(Nc2ncc(C)c(-c3ccc(OC(F)(F)F)cc3)n2)cc1` ; MRT last = 9.7

Reported MRT last for `Cc1ccc(CN2CCOCC2)cc1NC(=O)c1ccc(Nc2ncc(C)c(-c3ccc(OC(F)(F)F)cc3)n2)cc1` was 6.6

So, `Cc1ccc(CN2CCOCC2)cc1NC(=O)c1ccc(Nc2ncc(C)c(-c3cnn(C)c3)n2)cc1` ? Its MRT last was 2.4

Reference source: ChEMBL document CHEMBL3112531
